Reported kinh/Ki TG1 values for a set of compounds
Biological target: human transglutaminase 1 (TG1) (Homo sapiens)
Sequence (P22735 whole entry): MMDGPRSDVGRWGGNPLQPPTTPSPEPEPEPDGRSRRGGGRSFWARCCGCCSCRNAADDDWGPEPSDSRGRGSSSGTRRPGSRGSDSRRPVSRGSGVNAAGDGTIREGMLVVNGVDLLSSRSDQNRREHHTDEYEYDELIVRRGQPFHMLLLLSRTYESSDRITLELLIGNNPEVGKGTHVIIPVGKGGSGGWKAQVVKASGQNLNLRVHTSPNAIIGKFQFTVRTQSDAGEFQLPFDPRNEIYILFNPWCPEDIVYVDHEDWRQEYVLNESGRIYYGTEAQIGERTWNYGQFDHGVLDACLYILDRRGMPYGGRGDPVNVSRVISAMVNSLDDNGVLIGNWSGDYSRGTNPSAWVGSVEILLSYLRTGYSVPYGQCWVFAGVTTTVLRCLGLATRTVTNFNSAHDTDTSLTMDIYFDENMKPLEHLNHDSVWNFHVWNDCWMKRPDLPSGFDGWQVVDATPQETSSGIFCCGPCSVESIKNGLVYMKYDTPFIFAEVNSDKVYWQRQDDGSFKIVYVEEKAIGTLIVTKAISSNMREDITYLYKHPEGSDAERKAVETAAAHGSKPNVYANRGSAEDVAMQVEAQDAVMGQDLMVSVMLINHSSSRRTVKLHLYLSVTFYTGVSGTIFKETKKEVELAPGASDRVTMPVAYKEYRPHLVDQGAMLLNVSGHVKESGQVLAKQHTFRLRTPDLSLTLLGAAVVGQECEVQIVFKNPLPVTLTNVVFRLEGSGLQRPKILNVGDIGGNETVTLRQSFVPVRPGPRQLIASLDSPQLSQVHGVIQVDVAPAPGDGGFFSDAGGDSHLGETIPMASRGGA
Experiment: TG1 inhibition kinetics (kinh/Ki)
Assay type: biochemical
State the answer as a number, implicitly in M⁻¹ s⁻¹.

Sample records with kinh/Ki TG1:
- Substance smiles: "O=C(NC[C@@H]1CC(Br)=NO1)[C@@H]1C[C@@H](F)CN1C(=O)OCc1cnc2ccccc2c1"
  kinh/Ki TG1 [M⁻¹ s⁻¹]: 111.6
- Substance smiles: "O=C(NC[C@@H]1CC(Br)=NO1)[C@@H]1C[C@@H](O)CN1C(=O)OCc1cnc2ccccc2c1"
  kinh/Ki TG1 [M⁻¹ s⁻¹]: 73.12
- Substance smiles: "O=C(NC[C@@H]1CC(Br)=NO1)[C@@H]1C[C@H](F)CN1C(=O)OCc1cnc2ccccc2c1"
  kinh/Ki TG1 [M⁻¹ s⁻¹]: 100.7
- Substance smiles: "C#CCO[C@@H]1C[C@@H](C(=O)NC[C@@H]2CC(Br)=NO2)N(C(=O)OCc2cnc3ccccc3c2)C1"
  kinh/Ki TG1 [M⁻¹ s⁻¹]: 72.33
- Substance smiles: "O=C(NC[C@@H]1CC(Br)=NO1)[C@@H]1CCCCN1C(=O)OCc1cnc2ccccc2c1"
  kinh/Ki TG1 [M⁻¹ s⁻¹]: 384.87

Now let's try a different one.
So what's the measured kinh/Ki TG1 for this one? O=C(NC[C@@H]1CC(Br)=NO1)[C@@H]1CCCN1C(=O)OCc1cnc2ccccc2c1
220.37

====

Test system: TG2 activation in WI-38 monolayers
Assay: Thioredoxin-induced TG2 activation in WI-38 monolayers, 5BP incorporation ELISA
Assay type: cell-based, human
Settings: Homo sapiens, saturating 3 μM thioredoxin, read-out: amount of PX-12 required to reduce the 5BP incorporation in half
Value kind: IC50 (µM)
State the answer as a number, implicitly in µM.

So what's the measured IC50 for this one? CCC(C)SSc1ncc[nH]1 (stereo not shown) [compound 1, 1-methylpropyl 2-imidazolyl disulfide]
5

====

Molecular target: human TG2 (Homo sapiens, UniProt P21980)
Sequence (P21980 whole entry): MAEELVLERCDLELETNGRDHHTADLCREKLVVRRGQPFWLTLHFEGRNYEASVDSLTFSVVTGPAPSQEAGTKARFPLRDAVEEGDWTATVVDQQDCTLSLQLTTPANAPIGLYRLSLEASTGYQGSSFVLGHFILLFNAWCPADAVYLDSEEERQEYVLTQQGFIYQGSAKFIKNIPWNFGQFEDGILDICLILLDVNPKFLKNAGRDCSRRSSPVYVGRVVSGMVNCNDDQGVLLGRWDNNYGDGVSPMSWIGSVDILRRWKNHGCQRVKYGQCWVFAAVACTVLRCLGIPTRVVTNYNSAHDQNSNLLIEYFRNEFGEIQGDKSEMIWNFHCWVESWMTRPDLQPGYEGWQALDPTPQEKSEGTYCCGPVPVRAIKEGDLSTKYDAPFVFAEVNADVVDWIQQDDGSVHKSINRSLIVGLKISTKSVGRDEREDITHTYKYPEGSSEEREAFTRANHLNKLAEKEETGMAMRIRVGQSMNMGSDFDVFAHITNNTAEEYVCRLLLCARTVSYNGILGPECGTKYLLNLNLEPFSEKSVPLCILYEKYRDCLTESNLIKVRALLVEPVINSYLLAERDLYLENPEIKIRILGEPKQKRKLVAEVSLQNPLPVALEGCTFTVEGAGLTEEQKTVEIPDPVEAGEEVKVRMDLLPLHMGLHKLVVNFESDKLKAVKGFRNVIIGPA
Experiment: TG2 inhibition kinetics (kinh/Ki)
Type: biochemical
Reported kinh/Ki TG2 values for a set of molecules
State the answer as a number, implicitly in M⁻¹ s⁻¹.

Sample records with kinh/Ki TG2:
- Substance smiles: "O=C(NC[C@@H]1CC(Br)=NO1)[C@@H]1CCCCN1C(=O)OCc1cnc2ccccc2c1"
  Tested on: "human TG2 (Homo sapiens, UniProt P21980)"
  Readout units: "M⁻¹ s⁻¹"
  kinh/Ki TG2: 138.3
- Substance smiles: "O=C(NC[C@@H]1CC(Br)=NO1)[C@@H]1C[C@@H](OCc2ccccc2)CN1C(=O)OCc1cnc2ccccc2c1"
  Tested on: "human TG2 (Homo sapiens, UniProt P21980)"
  Readout units: "M⁻¹ s⁻¹"
  kinh/Ki TG2: 128.5
- Substance smiles: "O=C(NC[C@@H]1CC(Br)=NO1)[C@@H]1Cc2ccccc2CN1C(=O)OCc1cnc2ccccc2c1"
  Tested on: "human TG2 (Homo sapiens, UniProt P21980)"
  Readout units: "M⁻¹ s⁻¹"
  kinh/Ki TG2: 130
- Substance smiles: "O=C(NC[C@@H]1CC(Br)=NO1)[C@@H]1C[C@@H](O)CN1C(=O)OCc1cnc2ccccc2c1"
  Tested on: "human TG2 (Homo sapiens, UniProt P21980)"
  Readout units: "M⁻¹ s⁻¹"
  kinh/Ki TG2: 208.52
- Substance smiles: "O=C(NC[C@@H]1CC(Br)=NO1)[C@@H]1C[C@H](F)CN1C(=O)OCc1cnc2ccccc2c1"
  Tested on: "human TG2 (Homo sapiens, UniProt P21980)"
  Readout units: "M⁻¹ s⁻¹"
  kinh/Ki TG2: 223.93

So what's the measured kinh/Ki TG2 for this one? C#CCO[C@@H]1C[C@@H](C(=O)NC[C@@H]2CC(Br)=NO2)N(C(=O)OCc2cnc3ccccc3c2)C1
142

Also O=C(NC[C@@H]1CC(Br)=NO1)[C@@H]1CCCN1C(=O)OCc1cnc2ccccc2c1 ?
283.15

Also O=C(NC[C@@H]1CC(Br)=NO1)[C@@H]1C[C@@H](F)CN1C(=O)OCc1cnc2ccccc2c1 ?
120.8

Also O=C(NC[C@@H]1CC(Br)=NO1)[C@@H]1Cc2c([nH]c3ccccc23)CN1C(=O)OCc1cnc2ccccc2c1 ?
346.67
